Measured viability at 0.5 µM values are reported for all entries that follow.
# Test system: NCI-H1155 (lung cancer cells)
# assay_text: CytoX cell viability assay in NCI-H1155 lung cancer cells
# conditions_used: Homo sapiens, NCI-H1155, 72 h, read-out: NCI-H1155 (% viability) at 500 nM

Request: Lookup: viability at 0.5 µM / NCI-H1155 (lung cancer cells) / O=C1CCC(N2Cc3cc(CNC(=O)[C@@H]4C[C@H]4c4cccc(F)c4)ccc3C2=O)C(=O)N1 (stereo partly shown)
Result: 25%

Request: Entry to check: O=C1CCC(N2Cc3cc(CNC(=O)[C@@H]4C[C@@H]4c4ccccc4)ccc3C2=O)C(=O)N1 (stereo partly shown)
Result: 95%

Request: Same question, Cc1ccc([C@H]2C[C@@H]2C(=O)NCc2ccc3c(c2)CN(C2CCC(=O)NC2=O)C3=O)cc1 (stereo partly shown) this time
Result: 27%

Request: And O=C1CCC(N2Cc3cc(CNC(=O)[C@H]4C[C@@H]4c4cccc(Cl)c4)ccc3C2=O)C(=O)N1 (stereo partly shown) ?
Result: 25%

Request: Now the compound O=C1CCC(N2Cc3cc(CNC(=O)[C@@H]4C[C@H]4c4ccc(Cl)cc4)ccc3C2=O)C(=O)N1 (mixture of isomers) [Cpd. 5]
Result: 4%

Request: Try O=C1CCC(N2Cc3cc(CNC(=O)[C@H]4C[C@@H]4c4ccccc4)ccc3C2=O)C(=O)N1 (stereo partly shown) next.
Result: 4%

Request: Repeat for the following compound: O=C1CCC(N2Cc3cc(CNC(=O)[C@@H]4C[C@H]4c4cccc(Cl)c4)ccc3C2=O)C(=O)N1 (stereo partly shown)
Result: 4%
